molecular target: human beta1-adrenoceptor (Homo sapiens, UniProt P08588); construct: expressed in transfected cells; host or cells: CHO cells; assay: 3H-CGP12177 whole-cell binding, beta1; conditions: 3H-CGP 12177 whole cell binding, CHO cells expressing human beta1-adrenoceptor; logarithmic value; read-out: Beta 1 Log KD (converted)
Sequence (P08588 whole entry): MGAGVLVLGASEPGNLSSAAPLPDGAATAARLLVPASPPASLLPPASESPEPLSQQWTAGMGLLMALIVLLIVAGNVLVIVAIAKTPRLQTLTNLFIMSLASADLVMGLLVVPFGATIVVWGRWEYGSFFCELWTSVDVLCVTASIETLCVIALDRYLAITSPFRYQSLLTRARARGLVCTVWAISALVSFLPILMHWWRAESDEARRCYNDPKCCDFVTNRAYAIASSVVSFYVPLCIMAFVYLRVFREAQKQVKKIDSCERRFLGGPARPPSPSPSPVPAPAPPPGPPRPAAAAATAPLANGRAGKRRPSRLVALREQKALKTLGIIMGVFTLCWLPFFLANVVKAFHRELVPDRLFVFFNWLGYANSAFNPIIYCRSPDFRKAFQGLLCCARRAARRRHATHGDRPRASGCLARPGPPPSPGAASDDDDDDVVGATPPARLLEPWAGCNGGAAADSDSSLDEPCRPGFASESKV
Where a name gives a salt, the structure may show the parent alone.

| MOLECULE | TARGET UNDER TEST | Kd (nM) |
| --- | --- | --- |
| CC1(C)COc2cc(OC[C@@H](O)CNCCOc3ccc(C(N)=O)cc3)ccc2O1 | human beta1-adrenoceptor (Homo sapiens, UniProt P08588) | 316 |
| O=C1NCc2cc(OCCNC[C@H](O)COc3ccc(CCCN4CCC(F)(F)CC4)cc3)ccc21 | human beta1-adrenoceptor (Homo sapiens, UniProt P08588) | 1.95 |
| COc1ccc(OCC2COc3cc(OCC(O)CNCCOc4ccc5c(c4)CNC5=O)ccc3O2)c(F)c1 (stereo not shown) | human beta1-adrenoceptor (Homo sapiens, UniProt P08588) | 3.24 |
| O=C1NCc2cc(OCCNC[C@H](O)COc3ccc4c(c3)OC[C@@H](COc3ccc(OC(F)(F)F)cc3)O4)ccc21 | human beta1-adrenoceptor (Homo sapiens, UniProt P08588) | 3.39 |
| O[C@@H](CNCCOc1ccc2ncccc2c1)COc1ccc2c(c1)OC[C@@H](COCC1CC1)O2 | human beta1-adrenoceptor (Homo sapiens, UniProt P08588) | 4.17 |
| O=C1NCc2cc(OCCNC[C@H](O)COc3ccc4c(c3)OC[C@@H](COc3cccc(F)c3)O4)ccc21 | human beta1-adrenoceptor (Homo sapiens, UniProt P08588) | 2.82 |
| NC(=O)c1ccc(OCCNC[C@H](O)COc2ccc(CCCOC3CCCC3)cc2)cc1 | human beta1-adrenoceptor (Homo sapiens, UniProt P08588) | 0.912 |
| O=c1[nH]c2ccc(OCCNC[C@H](O)COc3ccc(CCCOCC4CC4)cc3)cc2[nH]1 | human beta1-adrenoceptor (Homo sapiens, UniProt P08588) | 8.32 |
| NC(=O)c1ccc(OCCNC[C@H](O)COc2ccc(CCCN3CCC(F)(F)CC3)cc2)cc1 [Example 41, dihydrochloride] | human beta1-adrenoceptor (Homo sapiens, UniProt P08588) | 1.82 |
| COc1c(F)cc(OC[C@@H]2COc3cc(OC[C@@H](O)CNCCOc4ccc5c(c4)CNC5=O)ccc3O2)cc1F | human beta1-adrenoceptor (Homo sapiens, UniProt P08588) | 2.69 |
